B1: ESRRG (parent)
chain: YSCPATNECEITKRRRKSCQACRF

variants of: B1; assay: protein stability index of a GFP-peptide fusion (GPS, HEK-293T) (PSI 1-6); higher = more stable; settings: c terminus: a fixed tail appended;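 note: lentivirally expressed fusions sorted by FACS into six bins by GFP to DsRed ratio, PSI derived from sequencing read proportions per bin multiplied by bin number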
Please provide measured protein stability index for the entries that follow.
Please state the value as a number alone, without comment.

[in] Recall and state the measured protein stability index for A21F .
[out] 2.94

[in] Recall and state the measured protein stability index for S2Y .
[out] 2.89

[in] Recall and state the measured protein stability index for K13R .
[out] 3.64

[in] Recall and state the measured protein stability index for A5Q .
[out] 3.26
